molecular target: guanine riboswitch RNA (GR); assay: Isothermal titration calorimetry, guanine riboswitch RNA; format: binding, B. subtilis; settings: 50 mM K+HEPES, 100 mM KCl, 10 mM MgCl2, 30° C.; read-out: Kd
pKd: −log10 of the molar value.
The following compounds are shown together with reported pKd values.
endpoint: pKd

compound	tgt	reported measurement
COc1nc(N)nc2nc[nH]c12 [O-Methylguanine]	guanine riboswitch RNA (GR)	8.52
O=c1[nH]c(=O)c2[nH]cnc2[nH]1 [Xanthine]	guanine riboswitch RNA (GR)	4.30
Nc1nc2c(c(=O)[nH]1)CC=N2 [7-Deazaguanine]	guanine riboswitch RNA (GR)	7.31
Nc1nc2nc[nH]c2c(=S)[nH]1 [6-Thioguanine]	guanine riboswitch RNA (GR)	7.13
Nc1nc(Br)c2[nH]cnc2n1 [6-Bromoguanine]	guanine riboswitch RNA (GR)	5.67
Nc1nc2nc[nH]c2c(=O)[nH]1 [Guanine]	guanine riboswitch RNA (GR)	8.40
Nc1ncc2[nH]cnc2n1 [2-Aminopurine]	guanine riboswitch RNA (GR)	5.36
O=c1[nH]cnc2nc[nH]c12 [Hypoxanthine]	guanine riboswitch RNA (GR)	6.12
CSc1nc(N)nc2nc[nH]c12 [6-Methylthioguanine]	guanine riboswitch RNA (GR)	7.38

// data source = patent US20080269258A1
